System: NCI-H522 lung
Assay: NCI-60 one-dose screen, 48 h (100 = growth as untreated, 0 = no growth, -100 = all killed)
Details: 10 µM
Method: Growth inhibition of the NCI-H522 human Non-Small Cell Lung tumor cell line is measured as a screen for anti-cancer activity. Cells are grown in 96 well plates and exposed to the test compound for 48 hours. Compounds are tested at a single concentration, which is 10^-5 M for most compounds. The reported endpoint is percent growth (GI% or GIPRCNT), where numbers from 0 - 100% represent growth inhibition, and numbers from -100% - 0 represent cell death. […]
About 83,000 compounds went through this panel and 20% of them were active in at least one assay; those are over-represented in the sample as a whole. Active and inactive are the calls of the source. The calls were made as follows: active = growth percent below 10; inactive = the rest.
measured property: growth

1. CCCCCCCCCCOC(c1ccccc1)c1ccccc1
75.8% (inactive)
2. Cc1cc(Br)nnc1Br
110% (inactive)
3. CC(C1=C(CN(C(=O)Cc2cn(-c3ccccc3)nc2-c2ccc(Cl)cc2)C(C)C)Cc2ccccc21)c1ccccn1 (configuration not stated)
44.2% (inactive)
4. Cc1ccc(S(=O)(=O)N(C)CCCCCC(=O)O)cc1
90% (inactive)
5. CC[N+](CC)=c1ccc2nc3c(cc(NCc4ccccc4)c4ccccc43)oc-2c1
-82.3% (active)
6. COc1cccc(-c2nc3sccn3c2-c2cccc(S(C)(=O)=O)c2)c1
102% (inactive)
7. Nc1ccc(-c2cccs2)cc1NC(=O)c1ccc(CCCC(=O)Nc2ccc(C3CC3N)cc2)cc1 (configuration not stated)
53.6% (inactive)
8. O=C(Nc1cc([N+](=O)[O-])c2[nH]c(=O)c3ccccc3c2c1)C(F)(F)F
77.2% (inactive)
9. COc1ccc(-c2nn(-c3cccc(Cl)c3)cc2C=C(C#N)C#N)cc1
-12.1% (active)
10. CC1(C)N=C(N)N=C(N)N1c1cccc(C#N)c1
65.6% (inactive)
11. CCOC(=O)CSc1nc(-c2cc(OC)ccc2OC)cc(-c2ccc(OC)cc2)c1C#N
55.8% (inactive)
12. O=S(=O)(Oc1ccc(-c2ccc3sccc3c2)cc1)c1ccc(F)cc1
87.7% (inactive)
13. CCOc1ccccc1/C=N\N=C(\N)N/N=C/c1ccccc1OCC
7.36% (active)
14. NC(N)=N/N=C(\c1ccccc1)C(O)c1ccccc1 (configuration not stated)
82.5% (inactive)
15. CN1CCN(CCCn2c(=O)c3sc4ncccc4c3n3nnc(-c4ccccc4)c23)CC1
-83.9% (active)
16. Cc1c(O)c(=O)ccn1C1CCC(CC2CCC(n3ccc(=O)c(O)c3C)CC2)CC1 (configuration not stated)
31.3% (inactive)
17. Cc1cc(Cl)ccc1Nc1nc(C(F)(F)F)ccc1C(=O)N/N=C/c1c(Cl)cccc1Cl
-16.7% (active)
18. CC(C)CCN(CCC(C)C)CC(=O)Nc1ccc(S(=O)(=O)c2ccc(NC(=O)CN(CCC(C)C)CCC(C)C)cc2)cc1
-64.6% (active)
19. COc1ccc(-c2nc(-c3nc4ccc(C)cc4[nH]3)cc3c2[nH]c2ccccc23)cc1
14.7% (inactive)
20. C=CCn1c(SCC(=O)Nc2ccc(C(=O)/C=C/c3cc(OC)c(OC)c(OC)c3)cc2)nnc1-c1cc(-c2ccc(Cl)cc2)nc2ccccc12
83.1% (inactive)
21. COc1ccc(-c2cc(-c3ccc(OC)c(OC)c3)nc(SCCCC(=O)NO)n2)cc1
2.7% (active)
22. COc1cc(-c2nn(-c3cccc(NC(=O)NCCNS(=O)(=O)c4ccc(Cl)cc4)c3)cc2-c2ccncc2)ccc1Cl
7.66% (active)
23. Cc1n[nH]c(C)c1N=Nc1cccc2c1C(=O)c1ccccc1C2=O
86.7% (inactive)
24. Cc1c2c(nn1C(=O)c1nn(-c3ccc(Cl)cc3)cc1O)-c1ccccc1CC2
-8.04% (active)
25. CCOc1ccccc1/C=N\N=C\c1ccccc1O
99.8% (inactive)
26. CNS(=O)(=O)Oc1ccc(-c2sc3cc(OS(=O)(=O)NC)ccc3c2C(=O)c2ccc(OCCN3CCCCC3)cc2)cc1
78.7% (inactive)
27. O=C1c2ccccc2C(=O)c2c1ccc1c(=O)n(-c3ccccc3C(F)(F)F)nnc21
16.7% (inactive)
28. O=C1CC(=O)N(C(=O)c2nn(-c3ccc(Cl)cc3)cc2O)N1
5.35% (active)
29. Cc1ccc(-n2nnnc2N)c(C)c1
112% (inactive)
30. Cc1ccc(C)c(COc2cc(NC(=O)c3ccc4c(c3)OCO4)ccc2N(C)S(C)(=O)=O)c1
-15.9% (active)
31. CC(=O)Nc1ccc(CC[C@H]2CCC/C=C/[C@@H]3C[C@H](O)C[C@H]3[C@H](O)/C=C/C(=O)O2)cc1
-39.3% (active)
32. COc1cc2c3c(n(C4CCN(C)CC4)c(=O)c2cc1OC)-c1cc2c(cc1C3=O)OCO2
8.85% (active)
33. O=C1/C=C/[C@@H](O)[C@@H]2C[C@@H](O)C[C@H]2/C=C/CCC[C@H](CCc2ccc(NC(=S)Nc3ccc4c(c3)C(=O)OC43c4ccc(O)cc4Oc4cc(O)ccc43)cc2)O1
-31% (active)
34. CC[C@H]1OC(=O)[C@H](C)[C@@H](O[C@H]2C[C@@](C)(OC)[C@@H](O)[C@H](C)O2)[C@H](C)[C@@H](O[C@@H]2O[C@H](C)C[C@H](N(C)C)[C@H]2O)[C@](C)(OC)C/C(C)=C2/O[C@@]1(C)C=C2C
44.4% (inactive)
35. CN(C)CCOc1ccccc1NC1=C(Cl)C(=O)C(Nc2ccccc2OCCN(C)C)=C(Cl)C1=O
-53.3% (active)
36. COc1ccc(-c2nn(-c3cccc(Cl)c3)cc2/C=C2\NC(=S)N(c3ccc(Cl)cc3)C2=O)cc1
-37.7% (active)
37. Nc1cc(Br)c(-c2nn3c(CCC(=O)c4nc5ccccc5[nH]4)nnc3s2)c(Br)c1
97.4% (inactive)
